Values were extracted from the supplement of paper PMC11061612.

- System: PEO1 (Ovarian Carcinoma)
- procedure_details: Bliss excess, mean over the matrix (fraction); higher = more synergy
test_readout: Bliss excess
Answers are plain numbers.

Please go through the list and note Bliss excess for each compound.
1. CN(CCO)CC[C@H](CSc1ccccc1)Nc1ccc(S(=O)(=O)NC(=O)c2ccc(N3CCC([C@@H](O)c4ccccc4-c4ccc(Cl)cc4)CC3)cc2)cc1S(=O)(=O)C(F)(F)F [AZD4320] + Cn1cnc2c(F)c(Nc3ccc(Br)cc3Cl)c(C(=O)NOCCO)cc21 [Selumetinib] (first compound max 1 µM, 7x7, partner max 3 µM)
2. C[C@@H](Oc1cc(-c2cnn(C3CCNCC3)c2)cnc1N)c1c(Cl)ccc(F)c1Cl [Crizotinib] + CC1=C(C(=CC=C1)Cl)NC(=O)C2=CN=C(S2)NC3=CC(=NC(=N3)C)N4CCN(CC4)CCO [Dasatinib] (first compound max 10 µM, 7x7, partner max 2 µM)
3. CCc1c2c(nc3ccc(O)cc13)-c1cc3c(c(=O)n1C2)COC(=O)[C@]3(O)CC [SN-38] + O=C(c1cc(Cc2n[nH]c(=O)c3ccccc23)ccc1F)N1CCN(C(=O)C2CC2)CC1 [Olaparib] (first compound max 0.3 µM, 7x7, partner max 10 µM)
4. CN(CCO)CC[C@H](CSc1ccccc1)Nc1ccc(S(=O)(=O)NC(=O)c2ccc(N3CCC([C@@H](O)c4ccccc4-c4ccc(Cl)cc4)CC3)cc2)cc1S(=O)(=O)C(F)(F)F [AZD4320] + C1CN(CCC1(C(=O)N[C@@H](CCO)C2=CC=C(C=C2)Cl)N)C3=NC=NC4=C3C=CN4 [Capivasertib] (first compound max 1 µM, 7x7, partner max 3 µM)
5. C[C@@H](c1ccc2nccn2c1)n1nnc2ncc(-c3cnn(C)c3)nc21 [Savolitinib] + CC1(C)CCC(CN2CCN(c3ccc(C(=O)NS(=O)(=O)c4ccc(NCC5CCOCC5)c([N+](=O)[O-])c4)c(Oc4cnc5[nH]ccc5c4)c3)CC2)=C(c2ccc(Cl)cc2)C1 [Venetoclax] (first compound max 1 µM, 7x7, partner max 1 µM)

[out]
1: -0.0044; 2: -0.0226; 3: 0.0523; 4: -0.0691; 5: -0.0441

* * *

- System: A253 (Head and Neck Carcinoma)
- procedure_details: combination Emax (second highest fraction inhibited in the dose matrix, 72 h); higher = more inhibition; extreme values may be limits of the assay
Please respond with reported combination Emax for every item in the list.
Answers are plain numbers.

Consider the reported combination Emax for these compounds:
compound	combination Emax
NC1(C(=O)N[C@@H](CCO)c2ccc(Cl)cc2)CCN(c2ncnc3[nH]ccc23)CC1 [Capivasertib] + Cn1cnc2c(F)c(Nc3ccc(Br)cc3Cl)c(C(=O)NOCCO)cc21 [Selumetinib] (first compound max 10 µM, 7x7, partner max 10 µM)	0.89
CN(CCO)CC[C@H](CSc1ccccc1)Nc1ccc(S(=O)(=O)NC(=O)c2ccc(N3CCC([C@@H](O)c4ccccc4-c4ccc(Cl)cc4)CC3)cc2)cc1S(=O)(=O)C(F)(F)F [AZD4320] + CN(C)CCCOc1ccc(-c2ccc3ncc4c(c3c2)n(C2CCOCC2)c(=O)n4C)cn1 [AZD0156] (first compound max 1 µM, 7x7, partner max 1 µM)	0.173
NC1(C(=O)N[C@@H](CCO)c2ccc(Cl)cc2)CCN(c2ncnc3[nH]ccc23)CC1 [Capivasertib] + CC(C)n1c(=O)n(C)c2cnc3cc(F)c(-c4ccc(OCCCN5CCCCC5)nc4)cc3c21 [AZD1390] (first compound max 10 µM, 7x7, partner max 0.3 µM)	0.559
CCN(CCO)CCCOc1ccc2c(Nc3cc(CC(=O)Nc4cccc(F)c4)[nH]n3)ncnc2c1 [AZD2811] + O=C(c1cc(Cc2n[nH]c(=O)c3ccccc23)ccc1F)N1CCN(C(=O)C2CC2)CC1 [Olaparib] (first compound max 1 µM, 7x7, partner max 10 µM)	0.25
CCN(CCO)CCCOc1ccc2c(Nc3cc(CC(=O)Nc4cccc(F)c4)[nH]n3)ncnc2c1 [AZD2811] + C[C@@H]1COCCN1C2=NC(=NC(=C2)C3(CC3)[S@](=N)(=O)C)C4=C5C=CNC5=NC=C4 [AZD6738] (first compound max 1 µM, 7x7, partner max 10 µM)	0.756
CCN(CCO)CCCOc1ccc2c(Nc3cc(CC(=O)Nc4cccc(F)c4)[nH]n3)ncnc2c1 [AZD2811] + C=CCn1c(=O)c2cnc(Nc3ccc(N4CCN(C)CC4)cc3)nc2n1-c1cccc(C(C)(C)O)n1 [AZD1775] (first compound max 1 µM, partner max 1 µM)	0.407

Below: the item to evaluate.
[in] Notebook: pull reported combination Emax for A253 (Head and Neck Carcinoma), entry CN(CCO)CC[C@H](CSc1ccccc1)Nc1ccc(S(=O)(=O)NC(=O)c2ccc(N3CCC([C@@H](O)c4ccccc4-c4ccc(Cl)cc4)CC3)cc2)cc1S(=O)(=O)C(F)(F)F [AZD4320] + C[C@@H]1COCCN1C2=NC(=NC(=C2)C3(CC3)[S@](=N)(=O)C)C4=C5C=CNC5=NC=C4 [AZD6738] (first compound max 1 µM, 7x7, partner max 10 µM)
[out] 0.892

* * *

I'd be grateful if you could share measured Bliss excess for these entries.
- Tested on: HCC70 (Breast Carcinoma)
- procedure_details: Bliss excess, mean over the matrix (fraction); higher = more synergy
Numbers only.

molecule	Bliss excess
COc1cccc(OCCCN)c1-c1cc(Nc2cnc(C#N)cn2)n[nH]1 [Prexasertib] + C=CCn1c(=O)c2cnc(Nc3ccc(N4CCN(C)CC4)cc3)nc2n1-c1cccc(C(C)(C)O)n1 [AZD1775] (first compound max 1 µM, partner max 1 µM)	0.0723
C[C@@H](c1ccc2nccn2c1)n1nnc2ncc(-c3cnn(C)c3)nc21 [Savolitinib] + CC1(C)CCC(CN2CCN(c3ccc(C(=O)NS(=O)(=O)c4ccc(NCC5CCOCC5)c([N+](=O)[O-])c4)c(Oc4cnc5[nH]ccc5c4)c3)CC2)=C(c2ccc(Cl)cc2)C1 [Venetoclax] (first compound max 1 µM, 7x7, partner max 1 µM)	-0.0361
CC1(C)CCC(CN2CCN(c3ccc(C(=O)NS(=O)(=O)c4ccc(NCC5CCOCC5)c([N+](=O)[O-])c4)c(Oc4cnc5[nH]ccc5c4)c3)CC2)=C(c2ccc(Cl)cc2)C1 [Venetoclax] + CS(=O)(=O)CCNCc1ccc(-c2ccc3ncnc(Nc4ccc(OCc5cccc(F)c5)c(Cl)c4)c3c2)o1 [Lapatinib] (first compound max 1 µM, 7x7, partner max 10 µM)	-0.0318
CN(CCO)CC[C@H](CSc1ccccc1)Nc1ccc(S(=O)(=O)NC(=O)c2ccc(N3CCC([C@@H](O)c4ccccc4-c4ccc(Cl)cc4)CC3)cc2)cc1S(=O)(=O)C(F)(F)F [AZD4320] + C[C@@H](Nc1cc(F)cc(F)c1)c1cc(C(=O)N(C)C)cc2c(=O)cc(N3CCOCC3)oc12 [AZD8186] (first compound max 1 µM, 7x7, partner max 3 µM)	0.0803
CN(CCO)CC[C@H](CSc1ccccc1)Nc1ccc(S(=O)(=O)NC(=O)c2ccc(N3CCC([C@@H](O)c4ccccc4-c4ccc(Cl)cc4)CC3)cc2)cc1S(=O)(=O)C(F)(F)F [AZD4320] + C1CN(CCC1(C(=O)N[C@@H](CCO)C2=CC=C(C=C2)Cl)N)C3=NC=NC4=C3C=CN4 [Capivasertib] (first compound max 1 µM, 7x7, partner max 3 µM)	0.0327

# evaluate next
[in] Item under review: CN(CCO)CC[C@H](CSc1ccccc1)Nc1ccc(S(=O)(=O)NC(=O)c2ccc(N3CCC([C@@H](O)c4ccccc4-c4ccc(Cl)cc4)CC3)cc2)cc1S(=O)(=O)C(F)(F)F [AZD4320] + Cn1cnc2c(F)c(Nc3ccc(Br)cc3Cl)c(C(=O)NOCCO)cc21 [Selumetinib] (first compound max 1 µM, 7x7, partner max 3 µM) . Reported Bliss excess?
[out] 0.152

* * *

- Test system: JHU-022 (Oral Cavity Carcinoma)
- procedure_details: Bliss excess, mean over the matrix (fraction); higher = more synergy
What Bliss excess was measured for each of the following?
Answers are plain numbers.

compound	Bliss excess
COc1nnc2ccc(N3CCC(c4ccc(OCCN5CCN(C)C(=O)[C@H]5C)cc4)CC3)nn12 [AZD5153] + C[C@@H]1COCCN1C2=NC(=NC(=C2)C3(CC3)[S@](=N)(=O)C)C4=C5C=CNC5=NC=C4 [AZD6738] (first compound max 1 µM, 7x7, partner max 10 µM)	-0.0134
C=CCn1c(=O)c2cnc(Nc3ccc(N4CCN(C)CC4)cc3)nc2n1-c1cccc(C(C)(C)O)n1 [AZD1775] + Nc1ccn([C@@H]2O[C@H](CO)[C@@H](O)C2(F)F)c(=O)n1 [Gemcitabine] (first compound max 1 µM, partner max 0.3 µM)	0.0276

[in] Could you tell me which Bliss excess is on file for Cc1c2c(nn1C)CSCc1cc(n(C)n1)CSc1cc(c3ccccc3c1)OCCCc1c(C(=O)O)n(C)c3c-2c(Cl)ccc13 [AZD5991] + C1CN(CCC1(C(=O)N[C@@H](CCO)C2=CC=C(C=C2)Cl)N)C3=NC=NC4=C3C=CN4 [Capivasertib] (first compound max 1 µM, 7x7, partner max 3 µM) ?
[out] -0.0273
